assay-system: human DGKα (Homo sapiens, UniProt P23743)
Construct: TVMV protease cleavage site (C); Hexa-His (C); made in house; host or cells: Sf9 insect cells (baculovirus, Bac-to-Bac)
Sequence (P23743 with tags, fused parts or gaps): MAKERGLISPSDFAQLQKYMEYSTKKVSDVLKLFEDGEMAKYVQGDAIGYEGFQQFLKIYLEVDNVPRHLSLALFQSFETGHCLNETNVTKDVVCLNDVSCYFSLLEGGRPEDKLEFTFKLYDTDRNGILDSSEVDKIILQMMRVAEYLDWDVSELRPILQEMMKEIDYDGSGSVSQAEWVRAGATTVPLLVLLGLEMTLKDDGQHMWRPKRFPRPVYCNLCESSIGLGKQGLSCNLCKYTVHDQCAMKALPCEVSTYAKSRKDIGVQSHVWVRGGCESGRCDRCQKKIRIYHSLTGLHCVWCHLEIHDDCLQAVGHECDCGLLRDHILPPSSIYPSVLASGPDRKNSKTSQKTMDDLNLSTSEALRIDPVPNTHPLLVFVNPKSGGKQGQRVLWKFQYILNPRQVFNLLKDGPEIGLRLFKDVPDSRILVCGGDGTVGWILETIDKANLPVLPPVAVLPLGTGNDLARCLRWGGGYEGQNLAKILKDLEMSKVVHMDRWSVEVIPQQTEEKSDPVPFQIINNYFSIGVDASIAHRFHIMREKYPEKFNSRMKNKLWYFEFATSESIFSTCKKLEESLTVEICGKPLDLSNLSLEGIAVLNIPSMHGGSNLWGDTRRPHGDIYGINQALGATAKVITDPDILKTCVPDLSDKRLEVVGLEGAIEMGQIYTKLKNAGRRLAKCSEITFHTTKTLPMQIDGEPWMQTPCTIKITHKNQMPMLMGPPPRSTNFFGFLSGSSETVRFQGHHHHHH
test-name: DGKα LIPGLO assay (extruded liposome substrate), in vitro DGK inhibition
Assay type: biochemical
measurement-setup: liposome (LIPGLO) assay; read-out: DGKa LIPGLO IC50
endpoint-label: IC50 (µM)

molecule: CC[C@@H]1CN(c2cc(=O)n(C)c3ccc(C#N)nc23)[C@@H](C)CN1C(C)c1ccc(C(F)(F)F)cc1 (single isomer, unassigned) [Example 1093]
IC50 / µM: 0.25

(I) C[C@@H]1CN(c2cc(=O)n(C)c3ccc(C#N)nc23)[C@@H](C)CN1C(c1ccc(F)cc1)c1ccc(F)cn1 (single isomer, unassigned)
(II) C[C@@H]1CN(c2cc(=O)n(C)c3ccc(C#N)nc23)[C@@H](C)CN1C(c1ccc(F)cc1)c1cc(F)cc(F)c1 (stereo partly drawn)
(III) CC(c1ccc2c(c1)OCCO2)N1C[C@H](C)N(c2cc(=O)n(C)c3ccc(C#N)nc23)C[C@H]1C (single isomer, unassigned) [Example 1259]
(IV) Cn1c(=O)cc(N2CCN(C(c3ccc(F)cc3)c3ccc(F)cc3)C(COC(F)F)C2)c2nc(C#N)ccc21 (single isomer, unassigned) [Example 1187]
q: Rank items: key IC50, increasing. Rank the items, then write their labels in that order.
a: I, II, III, IV

----------
assay-system: human DGKζ (Homo sapiens)
Construct: TVMV protease cleavage site (C); Hexa-His (C); made in house; host or cells: Sf9 insect cells (baculovirus, Bac-to-Bac)
test-name: DGKζ LIPGLO assay (extruded liposome substrate), in vitro DGK inhibition
Assay type: biochemical
measurement-setup: liposome (LIPGLO) assay; read-out: DGKz LIPGLO IC50
endpoint-label: IC50 (nM)

molecule: Cc1cc(OC(F)(F)F)ccc1CN1C[C@H](C)N(c2cc(=O)n(C)c3ccc(C#N)nc23)C[C@H]1C [Example 608]
unit-name: nM
recorded-number: 9200

(I) C[C@@H]1CN(c2c(C#N)c(=O)n(C)c3ccc(C#N)nc23)CCN1C(c1ccc(F)cc1)c1cncnc1 (stereo partly drawn) [Example 318]
(II) C[C@@H]1CN(c2cc(=O)n(C)c3ccc(C#N)nc23)[C@@H](C)CN1C(c1ccc(F)cc1)c1nccs1 (single isomer, unassigned) [Example 711]
q: Smaller IC50 value, I vs II ? Please reply using the label of the selected record.
a: II
(II: 3600 nM, I: 14000 nM)

(I) Cn1c(=O)c(C#N)c(N2CCN(C(c3ccc(F)cc3)c3ccc(F)cc3)C(CF)C2)c2nc(Br)ccc21 (stereo not drawn) [Example 9]
(II) C[C@@H]1CN(c2cc(=O)n(C)c3ccc(C#N)nc23)[C@@H](C)CN1C(c1ccc(F)cc1)c1csc(C(F)(F)F)n1 (single isomer, unassigned) [Example 1334]
q: Smaller IC50 value, I vs II ? Please reply using the label of the selected record.
a: II

(1) C[C@@H]1CN(c2cc(=O)n(C)c3ccc(C#N)nc23)[C@@H](C)CN1C(c1ccccc1)c1ccccc1 [Example 237]
(2) Cc1ccc(C(c2ccc(Cl)cc2)N2C[C@H](C)N(c3cc(=O)n(C)c4ccc(C#N)nc34)C[C@H]2C)cc1 (single isomer, unassigned) [Example 250]
q: Smaller IC50 value, 1 vs 2 ? Please reply using the label of the selected record.
a: 2
(2: 630 nM, 1: 1400 nM)

----------
assay-system: human DGKζ (Homo sapiens, UniProt Q13574)
Construct: TVMV protease cleavage site (C); Hexa-His (C); made in house; host or cells: Sf9 insect cells (baculovirus, Bac-to-Bac)
Sequence (Q13574 with tags, fused parts or gaps isoform Q13574-4): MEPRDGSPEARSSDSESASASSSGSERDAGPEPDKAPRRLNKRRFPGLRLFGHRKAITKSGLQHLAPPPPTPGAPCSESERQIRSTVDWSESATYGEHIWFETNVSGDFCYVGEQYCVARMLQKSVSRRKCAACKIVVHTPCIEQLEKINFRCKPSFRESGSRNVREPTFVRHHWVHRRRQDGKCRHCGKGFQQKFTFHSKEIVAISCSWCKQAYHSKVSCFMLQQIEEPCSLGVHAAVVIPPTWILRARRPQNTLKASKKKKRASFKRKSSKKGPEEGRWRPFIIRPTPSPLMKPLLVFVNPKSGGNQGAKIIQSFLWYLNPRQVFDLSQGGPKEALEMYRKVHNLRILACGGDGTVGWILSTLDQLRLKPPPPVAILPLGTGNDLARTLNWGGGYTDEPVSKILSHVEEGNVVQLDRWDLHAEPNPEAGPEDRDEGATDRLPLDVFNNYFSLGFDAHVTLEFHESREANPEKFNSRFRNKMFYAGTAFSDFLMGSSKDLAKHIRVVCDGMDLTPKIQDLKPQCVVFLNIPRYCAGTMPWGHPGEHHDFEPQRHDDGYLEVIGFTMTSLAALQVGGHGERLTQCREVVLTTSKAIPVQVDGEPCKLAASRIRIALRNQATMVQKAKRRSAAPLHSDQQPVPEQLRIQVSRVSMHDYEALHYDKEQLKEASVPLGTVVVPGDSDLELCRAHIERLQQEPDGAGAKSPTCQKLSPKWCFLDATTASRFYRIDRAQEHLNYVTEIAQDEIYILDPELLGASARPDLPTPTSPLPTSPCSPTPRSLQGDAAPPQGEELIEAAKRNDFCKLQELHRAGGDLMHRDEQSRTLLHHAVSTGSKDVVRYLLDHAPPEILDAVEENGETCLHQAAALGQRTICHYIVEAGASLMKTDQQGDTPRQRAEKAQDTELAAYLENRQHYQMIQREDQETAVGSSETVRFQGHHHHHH
test-name: DGKζ LIPGLO assay (extruded liposome substrate), in vitro DGK inhibition
Format: biochemical
measurement-setup: liposome (LIPGLO) assay; read-out: DGKz LIPGLO IC50
endpoint-label: IC50 (nM)

compound: CC[C@H]1CN(C(c2ccc(F)cc2)c2ccc(C#N)cc2)[C@H](COC)CN1c1cc(=O)n(C)c2ccc(C#N)nc12 (single isomer, unassigned) [Example 1170]
recorded-number: 170

(P) CC[C@@H]1CN(c2cc(=O)n(C)c3ccc(C#N)nc23)[C@@H](C)CN1C(C)c1ccc(OC)cc1 (single isomer, unassigned) [Example 1351]
(Q) CC(C)Oc1ccc(C(C)N2C[C@H](C)N(c3cc(=O)n(C)c4ccc(C#N)nc34)C[C@H]2C)cn1 (single isomer, unassigned) [Example 1324]
(R) COc1ccc(C(c2ccc(F)cc2)N2C[C@H](C)N(c3cc(=O)n(C)c4ccc(C#N)nc34)C[C@H]2C)cc1 (stereo partly drawn) [Example 659]
(S) C[C@@H]1CN(c2cc(=O)n(C)c3ccc(C#N)nc23)[C@@H](C)CN1C(c1ccc(OC(F)(F)F)cc1)c1ccccn1 (single isomer, unassigned) [Example 378]
q: Rank items: key IC50, increasing. Rank the items, then write their labels in that order.
a: Q, R, P, S
(Q: 140 nM, R: 310 nM, P: 780 nM, S: 2500 nM)

----------
System: Human venous whole blood
test-name: Human whole blood IFN-γ assay;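 also: blood from healthy donors exposed to compound for 1 h before stimulation with anti-CD3 and anti-CD28 at 1 µg/mL each, IFN-γ quantified in supernatant by AlphaLISA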
Type: cell-based
measurement-setup: Homo sapiens, 24 h, human whole blood, anti-CD3 plus anti-CD28, 24 hours; 3 μM reference compound = 100% activation; read-out: INFg Whole Blood Normalized Agonist EC50
# EC50 values compiled below
// return numeric value only (unit: µM, not printed)

compound: C[C@@H]1CN(c2cc(=O)n(C)c3ccc(C#N)nc23)[C@@H](C)CN1C(c1ccc(F)cc1)c1nc(C2CC2)no1 (single isomer, unassigned) [Example 736]
EC50, µM: 0.15
--
compound: C[C@@H]1CN(c2c(C#N)c(=O)n(C)c3ccc(C#N)nc23)CCN1Cc1ccc(Cl)c(Cl)c1
EC50, µM: 20

Now for the compound whose EC50 we want.
q: If you can, please state the reported EC50 value of CC(c1ccc(C(F)(F)F)cc1)N1CCN(c2c(C#N)c(=O)n(C)c3ccc(C#N)nc23)C[C@H]1C (single isomer, unassigned) .
a: 20

----------
assay-system: human DGKα (Homo sapiens)
Construct: TVMV protease cleavage site (C); Hexa-His (C); made in house; host or cells: Sf9 insect cells (baculovirus, Bac-to-Bac)
test-name: DGKα LIPGLO assay (extruded liposome substrate), in vitro DGK inhibition
Format: biochemical
measurement-setup: DGKα liposome (LIPGLO) assay; read-out: DGKa LIPGLO IC50
pIC50: −log10 of the molar value.
endpoint-label: pIC50

compound: C[C@@H]1CN(c2c(C#N)c(=O)n(C)c3ccc(C#N)nc23)CCN1C(c1ccc(F)cc1)c1ccc(C(F)(F)F)cc1 (single isomer, unassigned) [Example 910]
recorded-number: 5.52

(I) C[C@@H]1CN(c2c(C#N)c(=O)n(C)c3ccc(C#N)nc23)CCN1C(c1ccccc1)c1cc(F)cc(F)c1 (single isomer, unassigned) [Example 875]
(II) C[C@@H]1CN(c2cc(=O)n(C)c3ccc(C#N)nc23)[C@@H](C)CN1C(c1ccc(F)cc1)c1nc(C2CN(C(=O)OC(C)(C)C)C2)no1 (single isomer, unassigned) [Example 756]
q: Smaller pIC50 value, I vs II ? Please reply using the label of the selected record.
a: I

(a) CC(c1ccc(F)cc1)N1C[C@H](C)N(c2c(C#N)c(=O)n(C)c3ccc(C#N)nc23)C[C@H]1C (single isomer, unassigned) [Example 783]
(b) C[C@@H]1CN(c2cc(=O)n(C)c3ccc(C#N)nc23)[C@@H](C)CN1C(c1ccc(F)cc1)c1nnc(C2CC2)o1 (single isomer, unassigned)
q: Smaller pIC50 value, a vs b ? Please reply using the label of the selected record.
a: b
(b: 5.35, a: 5.92)

----------
assay-system: human DGKα (Homo sapiens)
Construct: TVMV protease cleavage site (C); Hexa-His (C); made in house; host or cells: Sf9 insect cells (baculovirus, Bac-to-Bac)
test-name: DGKα LIPGLO assay (extruded liposome substrate), in vitro DGK inhibition
Type: biochemical
measurement-setup: liposome (LIPGLO) assay; read-out: DGKa LIPGLO IC50
endpoint-label: IC50 (nM)

compound: C[C@@H]1CN(c2c(C#N)c(=O)n(C)c3ccc(C#N)nc23)CCN1C(c1ccc(F)cc1)c1nc(C2CC2)no1 (single isomer, unassigned) [Example 1029]
unit-name: nM
IC50: 450

(a) C[C@@H]1CN(c2cc(=O)n(C)c3ccc(C#N)nc23)[C@@H](C)CN1C(c1ccc(F)cc1)c1cccc(N2CCOCC2)c1 (single isomer, unassigned) [Example 672]
(b) CC(c1ccc(F)cc1)N1C[C@H](C)N(c2cc(=O)n(C)c3ccc(C#N)nc23)C[C@H]1C (single isomer, unassigned) [Example 308]
(c) Cc1ccc(C(c2cccc(F)c2)N2C[C@H](C)N(c3cc(=O)n(C)c4ccc(C#N)nc34)C[C@H]2C)nc1 (single isomer, unassigned) [Example 216]
(d) CC(c1cc(OC(F)(F)F)ccc1F)N1C[C@H](C)N(c2cc(=O)n(C)c3ccc(C#N)nc23)C[C@H]1C (stereo partly drawn) [Example 1202]
(e) COc1cc(F)c(C(C)N2C[C@H](C)N(c3cc(=O)n(C)c4ccc(C#N)nc34)C[C@H]2C)cc1OC (single isomer, unassigned) [Example 1247]
q: Rank items: key IC50, increasing. Rank the items, then write their labels in that order.
a: b, c, d, e, a
(b: 25 nM, c: 180 nM, d: 2200 nM, e: 24000 nM, a: 92000 nM)
